Source: PubChem BioAssay (NCI)

System: SK-MEL-28 melanoma
protocol.text: NCI-60 one-dose screen, 48 h
run.parameters: 10 µM unless noted
About 83,000 compounds went through this panel and 20% of them were active in at least one assay; those are over-represented in the sample as a whole. The source made the active and inactive calls. Rule for the calls: active = growth percent below 10; inactive = the rest.
Valid outcomes are listed here; reply with one: y for active, n for inactive

Cc1cc(N)n(S(=O)(=O)c2oc(-c3ccccc3)nc2C#N)n1; n

## Input // outcome(item) with item = C=C1CCC2C(C)(CO)C(O)CCC2(C)C1CC(NCc1ccccc1)C1=CCOC1=O (stereo not drawn)
## Output n

## Input // outcome(item) with item = `Clc1cccc(-c2cc(-c3ccc4c(c3)OCCO4)[nH]n2)c1`
## Output n

====

Test system: MCF7 breast
protocol.text: NCI-60 one-dose screen, 48 h
run.parameters: 10 µM unless noted
The panel holds about 83,000 compounds, 20% with a hit somewhere; the sample as a whole holds those more often. The source made the active and inactive calls. Rule for the calls: active = growth percent below 10; inactive = the rest.
Valid outcomes are listed here; reply with one: active, inactive

Illustrative cases are given below, each with its answer.
O=C(Nc1ccncc1)C(=O)c1cn(S(=O)(=O)c2ccc(Br)cc2)c2ccccc12; inactive
Cc1cc(C)n(-c2nnc3n2N=C(c2ccc(-c4ccccc4)cc2)CS3)n1; inactive
COc1cc(C2CC(c3ccc4c(c3)OCO4)=NN2C=O)cc(OC)c1OC (stereo unspecified); inactive
CCN(CC)CCC(CNc1c2ccc(Cl)cc2nc2ccc(OC)cc12)c1ccccc1 (stereo unspecified); active
Cc1cccc(/C=N/Nc2cc(C)c3cccc(C)c3n2)n1; inactive

## Input // outcome(item) with item = `COc1ccc(Nc2ncccc2C(=O)NCc2cn(Cc3cccc(Oc4ccccc4)c3)nn2)c(OC)c1`
## Output inactive

## Input // outcome(item) with item = CN(C)CC(C(=O)c1ccccc1)c1ccccc1 (stereo unspecified)
## Output inactive

## Input // outcome(item) with item = `CCCCCCCC[C@@H](O)CC(=O)N[C@@H](CC(N)=O)C(=O)N[C@@H](CCC(N)=O)C(=O)N[C@@H](CC(=O)c1cc(C)cc(O)c1C(=O)c1c(O)cccc1O)CC(C)C`
## Output inactive

## Input // outcome(item) with item = `COc1ccc2[nH]c(=O)c3c4ccccc4cn3c2c1`
## Output inactive

## Input // outcome(item) with item = `CC(C)(C)n1cc(-c2ccnc(NCCNS(=O)(=O)c3ccc(Cl)cc3)c2)c(-c2cccc(O)c2)n1`
## Output inactive

## Input // outcome(item) with item = COc1ccc2c(c1)C(c1cc(OC)c3c(c1)OCO3)C1=C(COC1=O)N2 (stereo unspecified)
## Output inactive

## Input // outcome(item) with item = `C=C[C@@H]1C[C@@H]2Cc3ccccc3N1O2`
## Output inactive

## Input // outcome(item) with item = CN1C(=O)N(C)C2C1NN=c1s/c(=C\C=C\c3ccccc3)c(=O)n12 (stereo unspecified)
## Output active

## Input // outcome(item) with item = `C=C1CCC[C@]2(C)CCC[C@H](C)[C@@H](OC(C)=O)[C@@H]3OC(=O)C(=C)[C@@H]3C[C@H]1O2`
## Output inactive

## Input // outcome(item) with item = Cc1[nH]c2ccc(F)cc2c1CCNC(=O)C1CCN(C(=O)c2ccccc2)C1 (stereo unspecified)
## Output inactive

## Input // outcome(item) with item = COc1ccc(C2CC(c3ccc(OC)cc3OC)=NN2c2ccc(S(N)(=O)=O)cc2)cc1 (stereo unspecified)
## Output inactive

====

Tested on: SK-MEL-28 melanoma
protocol.text: NCI-60 one-dose screen, 48 h (100 = growth as untreated, 0 = no growth, -100 = all killed)
run.parameters: 10 µM unless noted
About 83,000 compounds went through this panel and 20% of them were active in at least one assay; those are over-represented in the sample as a whole.
Consider the following compounds and their measured growth readings.
Write the number in % without appending the unit.

Here's what some known entries look like.
O=C(Nc1ccncc1)C(=O)c1cn(S(=O)(=O)c2ccc(Br)cc2)c2ccccc12; 60.6
CN(C)CCOC(=O)Nc1ccccc1Cl; 115
Cn1cc(-c2cnc3ccc(NC(=O)Nc4ccc(F)c(Br)c4)cc3n2)cn1; 50.1

Now look at this one.
Entry `COc1cc(Cn2cc3c(c2)-c2oncc2CC3)cc(OC)c1OC` , tested on SK-MEL-28 melanoma, has a reported growth of 59.9

====

Test system: HS 578T breast
protocol.text: NCI-60 one-dose screen, 48 h (100 = growth as untreated, 0 = no growth, -100 = all killed)
run.parameters: 10 µM unless noted
Compounds without any hit were thinned out: in the full panel of roughly 83,000, 20% have a hit.
Consider the following compounds and their measured growth readings.
Write the number in % without appending the unit.

COc1cc(-c2nn(-c3cccc(NC(=O)c4ccc(Cl)c(C(F)(F)F)c4)c3)cc2-c2ccncc2)ccc1Cl; 34.7
S=C1CC(=S)NC(=S)N1; 101
CCC(C)/C(=C\C#N)NCCCN/C(=C/C#N)C(C)CC (stereo not given); 101

Given item `Cc1ccc(-c2cc3nc(C(Cl)Cl)nc(-c4ccccc4C)n3n2)cc1` , the value recorded as its growth is 82.2

Given item `O=C(Nc1ccc(Cl)c(Cl)c1)NS(=O)(=O)c1cnccc1Oc1ccc(F)cc1` , the value recorded as its growth is 86

Given item CCC(=O)OC1=CN2C(=NC(c3ccc(N)cc3)=CC2c2cc(OC)c(OC)c(OC)c2)S1 (stereo not given) , the value recorded as its growth is 49

====

System: NCI-H226 lung
protocol.text: NCI-60 one-dose screen, 48 h (100 = growth as untreated, 0 = no growth, -100 = all killed)
run.parameters: 10 µM unless noted
The panel holds about 83,000 compounds, 20% with a hit somewhere; the sample as a whole holds those more often.
recorded.endpoint: growth (%)
Write the number in % without appending the unit.

Here's what some known entries look like.
O=C1c2c(Cl)c(Cl)c(Cl)c(Cl)c2C(=O)C2(Cl)CC=CCC12Cl (configuration not stated); 73
O=C(/C=C/c1ccccc1)c1cccc(O)c1; 109
Fc1ccc(Nc2nc(NCCNc3ccnc4cc(Cl)ccc34)nc(N3CCOCC3)n2)cc1; 94.8
COc1cccc(/C=C/C(=O)Nc2cc(OC)c3c(c2)OCO3)c1; 99.2
CC12CCCC(CC(=O)c3[nH]c4ccccc4c31)C2 (configuration not stated); 60.8
Cc1c(C(=O)/C=C/c2csc3ccccc23)[n+](=O)c2ccccc2n1[O-]; 78.1

Entry `c1ccc(-c2nnc(-c3ccccn3)s2)nc1` , tested on NCI-H226 lung, has a reported growth of 96.8

Entry `ClC(Cl)c1nc(-c2cccnc2)n2nc(-c3ccccc3)cc2n1` , tested on NCI-H226 lung, has a reported growth of 66.2

Entry `C=C[C@@H]1C[C@@H]2Cc3cc(Cl)ccc3N1O2` , tested on NCI-H226 lung, has a reported growth of 88.9

Entry `NC(N)=Nc1nc2ccccc2o1` , tested on NCI-H226 lung, has a reported growth of 107

Entry CC(=O)OC[C@]12CC[C@H]3[C@@H](C[C@H]4O[C@]45CC=CC(=O)[C@]35C)[C@]1(O)CC[C@@]2(O)[C@@](C)(O)C1CC(C)=C(C)C(=O)O1 (some centres not stated) , tested on NCI-H226 lung, has a reported growth of -28.5

Entry CCOC(=O)c1ccc(NC(=O)N2CC(C)OC(C)C2)cc1 (configuration not stated) , tested on NCI-H226 lung, has a reported growth of 98.1

====

Tested on: NCI-H322M lung
protocol.text: NCI-60 one-dose screen, 48 h (100 = growth as untreated, 0 = no growth, -100 = all killed)
run.parameters: 10 µM unless noted
This is part of a sample that, as a whole, favours compounds with a hit. Of some 83,000 tested, about 20% had one in any assay.
# binning rule on growth: bottom range = under 40%, center range = from 40% up to 90%, top range = 90% and over

Illustrative cases are given below, each with its answer.
COc1cc(C(=O)/C=C/c2ccc3nc(-c4cc(F)cc(F)c4)sc3c2)cc(OC)c1OC; top range
COc1ccc2c(c1)OC1=C(C(=O)OC1)C2c1cc(OC)c2c(c1)OCO2 (configuration not stated); center range
COC(=O)c1cccc2c1N(C)c1c(cccc1C(=O)OC)CC2; top range
COc1ccc(C(=O)n2nc(/C=C/c3ccc(O)c(OC)c3)cc2/C=C/c2ccc(O)c(OC)c2)cc1; bottom range
COc1ccc(Cn2cc3c(c2-c2cc(OC)c(OC)c(OC)c2)CCc2cnoc2-3)cc1; bottom range
Cc1ccc(-c2cc3nc(C(Cl)Cl)nc(-c4cccnc4)n3n2)cc1; bottom range

## Input State the class of the molecule shown: `Cc1ccc(/C=C2\CN(C(=O)CCN3CCC(=NO)CC3)C/C(=C\c3ccc(C)cc3)C2=O)cc1`
## Output bottom range

## Input State the class of the molecule shown: `ClC(Cl)c1nc(-c2cccnc2)n2nc(-c3ccccc3)cc2n1`
## Output center range

## Input State the class of the molecule shown: `COc1ccc(-c2nc(/C=N/Nc3cc(C)nc4ccc(Br)cc34)c(C)o2)cc1`
## Output bottom range

## Input State the class of the molecule shown: CCN(CC)CCCC(C)Nc1c2ccc(Cl)cc2nc2cc(OC)c(OC)cc12 (configuration not stated)
## Output bottom range

## Input State the class of the molecule shown: `O=C1/C(=C/c2ccccc2)Oc2ccc(O)c(I)c21`
## Output top range

## Input State the class of the molecule shown: `COC(=O)[C@]12CC[C@@H](C)[C@H](C)[C@@H]1C1=CC[C@@H]3[C@@]4(C)C(C=O)=C[C@@](C)(COC(=O)c5ccco5)[C@@H]4[C@H](O)C[C@@]3(C)[C@]1(C)CC2`
## Output bottom range

## Input State the class of the molecule shown: `COc1cc(/C(C#N)=C/c2ccc3c(c2OC)OCO3)cc2c1OCO2`
## Output bottom range

## Input State the class of the molecule shown: `Cc1ccc(S(=O)(=O)NC(=O)n2cc(-c3ccncc3)c(-c3ccc(Cl)c(O)c3)n2)cc1`
## Output top range

## Input State the class of the molecule shown: `Nc1nc(=O)c2ccccc2s1`
## Output top range

## Input State the class of the molecule shown: Cc1ccc(N2CCN(C(C)C(N)=O)CC2)cc1 (configuration not stated)
## Output top range

## Input State the class of the molecule shown: `Cc1ccc(Nc2nnc(-c3ccc(Cl)cc3)o2)c(C)c1`
## Output top range

## Input State the class of the molecule shown: `Oc1ccc(Cl)cc1-c1cc(-c2ccc(F)cc2)n[nH]1`
## Output center range

## Input State the class of the molecule shown: CCCCCCCCCCCCCCCCCCNC(=O)[C@H]1CSC(c2ccc(OC)cc2O)N1 (some centres not stated)
## Output center range
